Consider the following compounds and their measured inhibition at 0.01 µM readings.
# assayed target: IDH R132C (Homo sapiens, UniProt O75874, R132C)
# Construct: expressed in transfected cells; host or cells: U87 cells
# Sequence (O75874 whole entry R132C): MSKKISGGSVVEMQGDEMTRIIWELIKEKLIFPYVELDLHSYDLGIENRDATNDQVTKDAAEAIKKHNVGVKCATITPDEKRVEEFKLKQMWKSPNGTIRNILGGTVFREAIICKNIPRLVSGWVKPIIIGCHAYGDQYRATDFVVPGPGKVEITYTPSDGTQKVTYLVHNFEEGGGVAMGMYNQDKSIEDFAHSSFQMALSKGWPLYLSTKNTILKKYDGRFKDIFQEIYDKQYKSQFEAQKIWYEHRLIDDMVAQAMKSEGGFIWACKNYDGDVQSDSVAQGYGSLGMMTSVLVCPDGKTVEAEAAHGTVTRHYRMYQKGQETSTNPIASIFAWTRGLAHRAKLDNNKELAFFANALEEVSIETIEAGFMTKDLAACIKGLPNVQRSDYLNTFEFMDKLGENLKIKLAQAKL
# assay summary: Detection of 2-HG in supernatant of U87-IDH R132C cells
# Type: cell-based
# condition info: 10 nM compound, 72 h, LC-MS-MS, vs control; read-out: Inhibition rate of compounds on 2-HG in the supernatant of U87-IDH R132C cells, 10 nM

Illustrative cases are given below, each with its answer.
1) C=CC(=O)N1CC2(C1)CN(C(CC1CC1)c1ccc([C@H](C)Nc3ncc4cnc(=O)n(C(C)C)c4n3)cc1)C2 (stereo partly shown) :: 60 to 90%
2) C=CC(=O)N1CC2(C1)CN(C(CC1CC1)c1ccc(C3(Nc4ncc5c(n4)N(C(C)C)C(=O)OC5)CC3)cc1)C2 (stereo not shown) :: 60 to 90%
3) C=CC(=O)NC1CN(C(CC2CC2)c2ccc([C@H](C)Nc3ncc4c(n3)N(C(C)C)C(=O)OC4)cc2)C1 (stereo partly shown) :: 60 to 90%

Lab note: next compound to report on.
q: Can you share its inhibition at 0.01 µM? I mean this compound: C=CC(=O)N(C)C1CCN(C(CC2CC2)c2ccc([C@H](C)Nc3ncc4c(n3)N(C(C)C)C(=O)OC4)cc2)CC1 (stereo partly shown)
a: > 90%

* * *

# assayed target: IDH R132C (Homo sapiens, UniProt O75874, R132C)
# Construct: expressed in transfected cells; host or cells: U87 cells
# assay summary: Detection of 2-HG in supernatant of U87-IDH R132C cells
# Type: cell-based
# condition info: 1 nM compound, 72 h, LC-MS-MS, vs control; read-out: Inhibition rate of compounds on 2-HG in the supernatant of U87-IDH R132C cells, 1 nM
measurement type: inhibition at 0.001 µM

Recorded results for 5 compounds are shown here.
1. C=CC(=O)N1CC2(C1)CN(C(CC(C)C)c1ccc([C@H](C)Nc3ncc4c(n3)N(CC)C(=O)OC4)cc1)C2 (stereo partly shown) [Compound 41] :: 30 to 60%
2. C=CC(=O)NC1CN(C(CC2CC2)c2ccc([C@H](C)Nc3ncc4c(n3)N(CC)C(=O)OC4)cc2)C1 (stereo partly shown) [Compound 14] :: 30 to 60%
3. C=CC(=O)N1CCN([C@@H](CC2CC2)c2ccc([C@H](C)Nc3ncc4c(n3)N(C(C)C)C(=O)OC4)cc2)CC1 [Compound 147-1] :: 60 to 90%
4. C=CC(=O)N1CCN(C(CC2CC2)c2ccc(C3(Nc4ncc5cnc(=O)n(CC)c5n4)CC3)cc2)CC1 (stereo not shown) [Compound 109] :: 60 to 90%
5. C=CC(=O)N(C)C1CN(C(CC2CC2)c2ccc([C@H](C)Nc3ncc4c(n3)N(C(C)C)C(=O)OC4)cc2)C1 (stereo partly shown) [Compound 25] :: 30 to 60%

q: GET /values?readout=inhibition at 0.001 µM&item= C=CC(=O)N1CC2(C1)CN(C(CC(C)C)c1ccc([C@H](C)Nc3ncc4c(n3)N(C(C)C)C(=O)OC4)cc1)C2 (stereo partly shown) [Compound 47]
a: 60 to 90%

q: Return reported inhibition at 0.001 µM; argument: C=CC(=O)N1CCN(C(CC2CCC2)c2ccc([C@H](C)Nc3ncc4c(n3)N(C(C)C)C(=O)OC4)cc2)CC1 (stereo partly shown) [Compound 143]
a: 30 to 60%
